target.or.test.system: Human immunodeficiency virus type 1 reverse transcriptase (Human immunodeficiency virus 1)
procedure.details: Inhibition of HIV-1 NL4-3 reverse transcriptase expressed in Escherichia coli assessed as polymerization by one-step real-time RT-PCR assay
pIC50: −log10 of the molar value.
Give y when the value for pIC50 is at least 4. Give n when it is less.

Below, 4 compounds whose answers are already recorded.
CC(C)CN(C[C@@H](O)[C@H](Cc1ccccc1)NC(=O)c1cc2ccccc2oc1=O)S(=O)(=O)c1ccc(N)cc1
y
CC(C)CN(C[C@@H](O)[C@H](Cc1ccccc1)NC(=O)c1ccc2oc(=O)ccc2c1)S(=O)(=O)c1ccc(N)cc1
n
COc1ccc2c(CC(=O)N[C@@H](Cc3ccccc3)[C@H](O)CN(CC(C)C)S(=O)(=O)c3ccc(N)cc3)cc(=O)oc2c1
n
COc1ccc(S(=O)(=O)N(CC(C)C)C[C@@H](O)[C@H](Cc2ccccc2)NC(=O)Cc2cc(=O)oc3cc(O)ccc23)cc1
n

Would you say CC(C)CN(C[C@@H](O)[C@H](Cc1ccccc1)NC(=O)c1cc2ccc(O)cc2oc1=O)S(=O)(=O)c1ccc([N+](=O)[O-])cc1 shows pIC50 at minimum 4?
n

---

Measured pIC50 by item
target.or.test.system: Human immunodeficiency virus type 1 reverse transcriptase (Human immunodeficiency virus 1, UniProt Q72547)
procedure.details: Inhibition of HIV-1 NL4-3 reverse transcriptase expressed in Escherichia coli assessed as polymerization by one-step real-time RT-PCR assay
// pIC50: -log10(molar conc.)

For orientation, consider the following solved cases.
COc1ccc(S(=O)(=O)N(CC(C)C)C[C@@H](O)[C@H](Cc2ccccc2)NC(=O)c2ccc3oc(=O)ccc3c2)cc1
3.22
COc1ccc(S(=O)(=O)N(CC(C)C)C[C@@H](O)[C@H](Cc2ccccc2)NC(=O)c2cc3ccc(OC)cc3oc2=O)cc1
3.43
COc1ccc(S(=O)(=O)N(CC(C)C)C[C@@H](O)[C@H](Cc2ccccc2)NC(=O)Cc2cc(=O)oc3cc(OC)ccc23)cc1
3.62

If you can, please state the reported pIC50 value of CC(C)CN(C[C@@H](O)[C@H](Cc1ccccc1)NC(=O)Cc1cc(=O)oc2cc(O)ccc12)S(=O)(=O)c1ccc([N+](=O)[O-])cc1 .
3.44

If you can, please state the reported pIC50 value of COc1ccc(S(=O)(=O)N(CC(C)C)C[C@@H](O)[C@H](Cc2ccccc2)NC(=O)c2cc3ccccc3oc2=O)cc1 .
3.32

If you can, please state the reported pIC50 value of COc1ccc(S(=O)(=O)N(CC(C)C)C[C@@H](O)[C@H](Cc2ccccc2)NC(=O)Cc2cc(=O)oc3cc(N(C)C)ccc23)cc1 .
3.45

If you can, please state the reported pIC50 value of COc1ccc2c(CC(=O)N[C@@H](Cc3ccccc3)[C@H](O)CN(CC(C)C)S(=O)(=O)c3ccc([N+](=O)[O-])cc3)cc(=O)oc2c1 .
3.43
